- system.tested: cytochrome P450 2C8-isoenzyme (Homo sapiens, UniProt P10632)
- Sequence (P10632 whole entry): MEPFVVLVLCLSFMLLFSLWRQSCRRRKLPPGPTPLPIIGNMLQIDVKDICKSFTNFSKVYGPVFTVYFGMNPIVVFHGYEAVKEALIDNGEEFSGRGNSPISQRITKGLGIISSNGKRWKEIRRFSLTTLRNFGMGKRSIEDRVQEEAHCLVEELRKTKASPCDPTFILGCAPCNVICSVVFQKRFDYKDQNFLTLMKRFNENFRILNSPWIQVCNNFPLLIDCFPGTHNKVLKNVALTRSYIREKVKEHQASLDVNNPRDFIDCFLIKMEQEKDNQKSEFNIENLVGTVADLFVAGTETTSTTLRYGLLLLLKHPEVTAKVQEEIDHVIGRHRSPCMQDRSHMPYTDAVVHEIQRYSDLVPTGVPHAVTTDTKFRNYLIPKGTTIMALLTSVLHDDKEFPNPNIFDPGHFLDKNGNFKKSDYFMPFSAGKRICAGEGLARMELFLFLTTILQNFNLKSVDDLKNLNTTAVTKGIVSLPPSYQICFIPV
Overview of recorded IC50 for various compounds
value.kind: IC50 (µM)

compound="Cc1cc(OCCC(C)(C)O)cc(C)c1-c1ccc(F)c2c1CC[C@H]2Nc1cnc2c(c1)OC[C@H]2CC(=O)O [Example 2]" value_kind=IC50 reported_value=32
compound="Cc1nc(-c2cc(C)c(-c3cccc4c3CC[C@H]4Nc3cnc4c(c3)OCC4CC(=O)O)c(C)c2)no1 (stereo partly shown) [Example 132]" value_kind=IC50 reported_value=23
compound="Cc1cc(OCCC(C)(C)O)cc(C)c1-c1cccc2c1CC[C@H]2Oc1ccc2c(c1)OC[C@H]2CC(=O)O [7 (WO 2013/144098), reference compound]" value_kind=IC50 reported_value=5
compound="Cc1cc(-c2nnn(C)n2)cc(C)c1-c1ccc(F)c2c1CC[C@H]2Nc1cnc2c(c1)OC[C@H]2CC(=O)O [Example 5]" value_kind=IC50 reported_value=22
compound="Cc1ccc(Cl)c(-c2cccc3c2CC[C@H]3Nc2cnc3c(c2)OCC3CC(=O)O)c1Cl (stereo partly shown) [Example 128]" value_kind=IC50 reported_value=14
compound="Cc1cc(OCCC(C)(C)O)cc(C)c1-c1cccc2c1CC[C@H]2Nc1cnc2c(c1)OC[C@H]2CC(=O)O [Example 4]" value_kind=IC50 reported_value=43
compound="CC(C)c1ccccc1-c1cccc2c1CC[C@H]2Nc1cnc2c(c1)OCC2CC(=O)O (stereo partly shown) [Example 129]" value_kind=IC50 reported_value=12
